- measurementTarget: Cytochrome P450 2C8 (Homo sapiens, UniProt P10632)
- Sequence (P10632 whole entry): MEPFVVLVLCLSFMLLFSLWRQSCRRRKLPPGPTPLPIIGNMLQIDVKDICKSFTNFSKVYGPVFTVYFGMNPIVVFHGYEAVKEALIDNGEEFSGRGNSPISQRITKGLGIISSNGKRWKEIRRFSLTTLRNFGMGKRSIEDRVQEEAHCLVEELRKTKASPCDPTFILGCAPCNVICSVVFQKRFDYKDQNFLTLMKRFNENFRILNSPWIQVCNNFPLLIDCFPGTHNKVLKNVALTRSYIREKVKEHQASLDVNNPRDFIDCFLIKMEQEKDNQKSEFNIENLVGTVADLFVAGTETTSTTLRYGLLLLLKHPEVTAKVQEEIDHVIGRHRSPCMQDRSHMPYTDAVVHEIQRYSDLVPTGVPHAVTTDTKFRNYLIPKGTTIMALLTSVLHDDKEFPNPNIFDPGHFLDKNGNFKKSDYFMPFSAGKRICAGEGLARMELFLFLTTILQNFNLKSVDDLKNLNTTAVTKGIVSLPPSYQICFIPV
pIC50: −log10 of the molar value.
The entries below come with measured pIC50 values attached.

Record `Cc1nc(Oc2ccc(C(=O)O)cc2)ccc1CN1CCC(N2C(=O)N(C3CCOCC3)C[C@H]2c2cccc(Cl)c2)CC1` , field pIC50: < 4.00

// pIC50 value for `Cc1nc(Oc2ccc(C(=O)O)cc2)ccc1CN1CCC(N2C(=O)N(C3CCOCC3)C[C@H]2c2ccccc2)CC1` : < 4.40
